Molecular target: SUMO-conjugating enzyme UBC9 (Homo sapiens)
Assay: blockers of UBC9-mediated SUMO conjugation – biochemical, AlphaScreen, SUMOylation inhibitor project, confirmation (AID 2018)
Conditions: AlphaScreen in vitro SUMOylation assay; at 35 µM
In all, about 1,200 compounds went through this assay and about 600 (50%) were called active. No stated cut-off is given here; in the data, active means inhibition above about 42%; inactive means the rest. The set was probably picked from earlier hits. The list shows a part of the results. Results with a measured potency or affinity are listed apart.
Possible outcomes: active, inactive

Nc1c(C(=O)Nc2ccccc2)sc2nc(-c3ccco3)ccc12 = inactive
C=CCOC(=O)C(C#N)c1nc2ccccc2nc1N1CCN(Cc2ccccc2)CC1 (stereo unspecified) = inactive
Cc1ccc(-c2cc(-c3ccccc3O)nc(N/N=C/c3cccnc3)n2)cc1 = inactive
Cc1cccc(S(=O)(=O)C(C#N)c2nc3ccccc3nc2N2CCCC2)c1 (stereo unspecified) = inactive
Nc1c(C(=O)Nc2ccc(F)cc2)sc2nc(-c3ccco3)ccc12 = inactive
NNC(=O)c1oc2nc(-c3ccco3)cc(-c3ccco3)c2c1N = active

====

Target: SUMO-conjugating enzyme UBC9 (Homo sapiens)
Test: blockers of UBC9-mediated SUMO conjugation – biochemical, AlphaScreen, SUMOylation inhibitor project, confirmation (AID 2018)
Details: AlphaScreen in vitro SUMOylation assay; at 35 µM; hits give high values
The campaign covered roughly 1,200 compounds. About 600 (50%) were called active. So high a share suggests a set chosen from earlier hits. Some of the results follow. Results with a measured potency or affinity are listed apart.
Label t when inhibition is at or above 50%; otherwise label f.

Cc1cccc(NC(=S)Nc2cccc3ccccc23)c1 = f
CCN(CC(=O)c1c(N)n(C)c(=O)n(C)c1=O)c1cccc2ccccc12 = f
CCOC(=O)C1CCCN(c2cc(NCCCO)c([N+](=O)[O-])c3nonc23)C1 (stereo unspecified) = f
O=C(COC(=O)c1cc(-c2cccs2)nc2ccccc12)NCc1ccco1 = f
Cc1ncc(CO)c(/C=N/NC(=O)c2cc(O)c(O)c(O)c2)c1O = t
O=C(CNc1cccc2ccccc12)c1ccc([N+](=O)[O-])cc1 = f
N#Cc1sc2nc(-c3ccccc3)cc(-c3ccco3)c2c1N = t
CC1CCN(C2=C(NS(=O)(=O)c3ccc(Br)cc3)C(=O)c3ccccc3C2=O)CC1 = t
CC(=O)c1sc2nc(-c3ccco3)ccc2c1N = f
COc1ccc(CC2S/C(=N/N=C/c3ccccc3O)NC2=O)cc1 (stereo unspecified) = f
N#Cc1c(-c2ccco2)cc(-c2cccnc2)nc1N = f
COc1cc(C)c2c(c1C=O)Oc1c(c(C)c(O)c3c1C(O)OC3=O)OC2=O (stereo unspecified) = t
CC1CCCN(C2=C(NS(=O)(=O)c3ccc(Br)cc3)C(=O)c3ccccc3C2=O)C1 (stereo unspecified) = t
COc1cc(/C=N/NC(=O)c2cc(-c3ccco3)nc3ccccc23)cc(OC)c1O = t
NC(=O)C1CCN(C2=C(NS(=O)(=O)c3ccccc3)C(=O)c3ccccc3C2=O)CC1 = f
Cc1cccc(NC2=C(NCCO)C(=O)c3ccccc3C2=O)c1 = t
Cc1ccc(NC(=O)CCC(=O)OCC(=O)c2ccc(-c3ccccc3)cc2)cc1 = f
CCOC(=O)C1CCN(C2=C(NS(=O)(=O)c3ccc(Br)cc3)C(=O)c3ccccc3C2=O)CC1 = t
O=[N+]([O-])c1ccc(Cl)c(C2Nc3cccc4cccc(c34)N2)c1 = f
CCCS(=O)(=O)c1c(S(=O)(=O)CCC)c2c(N)cccn2c1C(=O)c1ccc(Br)cc1 = f

====

Molecular target: SUMO-conjugating enzyme UBC9 (Homo sapiens) (UniProt P63279)
Sequence (P63279 whole entry, looked up): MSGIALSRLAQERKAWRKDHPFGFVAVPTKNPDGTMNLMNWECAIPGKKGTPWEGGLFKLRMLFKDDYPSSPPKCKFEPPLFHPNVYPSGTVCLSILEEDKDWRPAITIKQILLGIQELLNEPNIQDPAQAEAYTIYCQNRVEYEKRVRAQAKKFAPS
Experiment: blockers of UBC9-mediated SUMO conjugation – biochemical, AlphaScreen, SUMOylation inhibitor project, confirmation (AID 2018)
Conditions: AlphaScreen in vitro SUMOylation assay; at 35 µM
The campaign covered roughly 1,200 compounds. About 600 (50%) were called active. Cut-off read from the data, not from the text of the source: active = inhibition above about 42%; inactive = the rest. So high a share suggests a set chosen from earlier hits. The list shows a part of the results. Results with a measured potency or affinity are listed apart.
Outcomes: active, inactive

COCCCn1c(C(=O)N2CCOCC2)cc2c(=O)n3ccccc3nc21 = inactive
Cn1c(C(=O)N2COCC2(C)C)cc2c(=O)n3ccccc3nc21 = inactive
O=C(CC1Nc2cccc3cccc(c23)NC1=O)Nc1ccccc1 (centres undefined) = inactive
O=C(Nc1ccccc1)Oc1ccc[nH]c1=O = inactive
O=[N+]([O-])c1c(NCCCO)cc(Sc2ccc(Cl)cc2)c2nonc12 = active
C=CCOc1c(Cl)cc(CNc2ccc3[nH]c(=O)[nH]c3c2)cc1OC = inactive
Cn1c(NNC(=O)c2c(F)cccc2F)cc(=O)n(C)c1=O = active
COc1cccc(-c2[nH]nc3c2C(c2ccsc2)C(C#N)=C(N)O3)c1 (centres undefined) = inactive
COc1ccccc1/C=N/NC(=O)c1ccc(CN2C(=O)c3cccc4cccc2c34)cc1 = inactive
Cn1c(C(=O)N2CCN(C(=O)c3ccco3)CC2)cc2c(=O)n3ccccc3nc21 = inactive
C=CCc1cccc(/C=N/NC(=O)CNc2cccc3ccccc23)c1O = inactive
O=C(NN1C(=O)CSC1=S)C(=O)NN1C(=O)CSC1=S = active
S=c1[nH]nc(-c2cc(-c3ccccc3)n[nH]2)n1/N=C/c1ccc(Cl)c(Cl)c1 = inactive
COc1ccc(Br)cc1C1CC(=O)N2CN(Cc3ccccc3)CSC2=C1C#N (centres undefined) = inactive
O=C1C=C(N(CCO)Cc2ccccc2)c2ccccc2C1=O = active
COCC(C)N1C(=O)Cc2c1nc(N)c1c(N)nc(N3CCN(c4ccccc4F)CC3)c(C#N)c21 (centres undefined) = inactive
Cc1cc2c(N)cccc2nn1 = active
C=CCN(CC=C)C(=S)Nc1ccc2nsnc2c1 = inactive
N#CCCN(Cc1cccnc1)C(=S)NC1CC2C=CC1C2 (centres undefined) = inactive
S=C(Nc1ccc2nsnc2c1)N1CCCC1 = inactive
COc1ccc(C(N)c2nccc3cc(OC)c(OC)cc23)cc1OC (centres undefined) = inactive
Cc1ccc(S(=O)(=O)N2CCCCC2)cc1NC(=O)COC(=O)c1c(F)cccc1F = inactive
Fc1cccc(Cl)c1C1Nc2cccc3cccc(c23)N1 = active
Cn1c(C(=O)NCC2CCCO2)cc2c(=O)n3ccccc3nc21 (centres undefined) = inactive
CCOc1ccc(NC(=S)Nc2ccc3nsnc3c2)cc1 = active
COCCCn1c(C(=O)N2CC(C)OC(C)C2)cc2c(=O)n3ccccc3nc21 (centres undefined) = inactive
Nc1ccc(N(CCO)CCO)cc1 = inactive
Cc1ccc(S(=O)(=O)c2cc3c(=O)n4ccccc4nc3n(Cc3ccco3)c2=N)cc1C = active
CNc1nnc(-c2cc3ccccc3oc2=O)s1 = inactive
Cc1cccn2c(=O)c3cc(S(=O)(=O)c4ccc(F)cc4)c(=N)n(Cc4ccco4)c3nc12 = inactive
Cc1cccc(-c2n[nH]c(=S)n2/N=C/C=C/c2ccco2)c1 = inactive
O=[N+]([O-])c1cc(CN2CCN(c3cccc(C(F)(F)F)c3)CC2)c2cccnc2c1O = active
O=C(Cc1cc(=O)[nH][nH]1)N/N=C/c1cccc2ccccc12 = active
Cc1[nH][nH]c(=O)c1C(c1ccc(-c2ccc(Cl)c(C(=O)O)c2)o1)c1c(C)[nH][nH]c1=O = active
COc1ccc(NC(=S)Nc2ccc3nccnc3c2)cc1 = inactive
Cc1ccc(C2C(C#N)=C(N)N(c3cccnc3)C3=C2C(=O)CCC3)s1 (centres undefined) = inactive
NS(=O)(=O)c1cnccc1Nc1ccc(Cl)cc1 = inactive
Cc1cccn2c(=O)c3cc(S(=O)(=O)c4ccccc4)c(=N)n(Cc4ccco4)c3nc12 = inactive
CC1(C)CC(=O)C2=C(C1)Nc1[nH]c(=S)[nH]c(=O)c1C2c1ccccc1 (centres undefined) = inactive
COc1cccc(C(=O)Nc2cccc(C(=O)NC3=NN(c4c(Cl)cc(Cl)cc4Cl)C(=O)C3)c2)c1 = active
Nc1ccc(Br)c2cccnc12 = active
O=C(O)c1cccc([N+](=O)[O-])c1C(=O)Nc1cccc2ccccc12 = inactive
Cc1nn2c3c(cnc2c1-c1ccc(Cl)cc1)C(=O)CC(c1ccco1)C3 (centres undefined) = inactive
O=C(NC(=S)Nc1cccc2c(O)cccc12)c1ccccc1[N+](=O)[O-] = inactive

====

Biological target: SUMO-conjugating enzyme UBC9 (Homo sapiens)
Assay: blockers of UBC9-mediated SUMO conjugation – biochemical, AlphaScreen, SUMOylation inhibitor project, confirmation (AID 2018)
Conditions: AlphaScreen in vitro SUMOylation assay; at 35 µM
Screen size: about 1,200 compounds; about 600 (50%) were called active. Rule as the data show it: active = inhibition above about 42%; inactive = the rest. So high a share suggests a set chosen from earlier hits. The list shows a part of the results. Measured potencies and affinities stand elsewhere.
Classes used: active, inactive

CC(C)C(=O)Nc1cccc(C(=O)NCc2ccc3c(c2)OCO3)c1 = inactive
O=C(Nc1ccccc1)Nc1ccno1 = inactive
CN(C)c1cccc2c(S(=O)(=O)N3CCCC3)cccc12 = inactive
Nc1nc(-c2ccco2)c(-c2ccco2)s1 = active
COc1ccc(NCc2ccc([N+](=O)[O-])s2)c(OC)c1 = active
Cc1cc(=O)[nH]c(SCC(=O)Nc2cccc(C(F)(F)F)c2)n1 = inactive
Cn1nccc1NC(=O)Nc1cccc(Cl)c1 = inactive
CCCCN(C)S(=O)(=O)c1cc(Br)cc2c1N(C(=O)C1CC1)CC2 = inactive
CN(C)/C=C1/Oc2c(ccc3ccccc23)C1=O = inactive
Cc1cc(C)cc(NC(=S)Nc2cccc3ccccc23)c1 = inactive
CC(=O)c1ccc(N2CCN(C(=O)c3cccs3)C(C)C2)c(F)c1 (stereo unspecified) = inactive
O=C1C2C3C=CC(C4CC34)C2C(=O)N1CCc1ccccc1 (stereo unspecified) = inactive
COc1ccc(Cc2n[nH]c(=S)n2NC(=O)Nc2ccc(Cl)c(Cl)c2)cc1 = inactive
Nc1ccc(O)cc1C(=O)OCC(=O)c1ccc(C2CCCCC2)cc1 = inactive
CC(C)(C)c1ccc(C(=O)NNc2cc(N3CCOCC3)nc(N3CCOCC3)n2)cc1 = inactive
O=C(Nc1cccc2ccccc12)N1CCc2ccccc2C1 = inactive
Cc1cccc(C(=O)NC2C(=O)NNC2c2ccc(Cl)cc2)c1 (stereo unspecified) = active
CN(CCO)c1nc(N)c2c(N)nc3c(c2c1C#N)CC(=O)N3C1CCCC1 = inactive
O=[N+]([O-])c1cc(Cl)cc(/C=N/NC(=S)Nc2ccc(S(=O)(=O)N3CCOCC3)cc2)c1O = active
CCc1ccc(OCC(=O)N/N=C2\CC(=O)c3ccccc32)cc1 = active
O=S(=O)(Nc1cc2nc3ccccc3nc2n1Cc1ccccc1)c1ccc(Cl)cc1 = active
Cc1cc(=O)[nH]c(SCC(=O)c2ccc(O)c(O)c2)n1 = active
CCC(=O)c1ccccc1OCCSc1nc(C)cc(=O)[nH]1 = inactive
Cc1n[nH]c(=S)n(NC(=O)/C=C/C(=O)Nn2c(=S)[nH]nc(C)c2=O)c1=O = active
CCc1cc2c(=O)nc3n(c2s1)Cc1ccccc1/C3=C(/O)c1cccc([N+](=O)[O-])c1 = inactive
CCOC(=O)NC(=O)COC(=O)c1ccc(O)cc1 = inactive
NC(=O)c1sc2nc(-c3ccco3)ccc2c1N = inactive
O=C(Cc1ccccc1)Nc1nnc(-c2ccco2)s1 = inactive
CC(=O)Nc1ccc(-c2nc3ccc(NC(C)=O)cc3o2)cc1 = inactive
S=C(Nc1ccc2nc(-c3ccccn3)c(-c3ccccn3)nc2c1)N1CCOCC1 = inactive
CC(=O)c1ccc(NC(=S)Nc2cccc3ccccc23)cc1 = inactive
